The measured values listed here are drawn from ChEMBL document CHEMBL1130369.

- System: Staphylococcus aureus
- Protocol Summary: Minimal synergizing concentration required to inhibit growth of Staphylococcus aureus strain 447 in the presence of 4 ug/mL of methicillin.
- Type: functional
Metric Name: MSC

# Molecule, MSC
data = [
    ("O=C1N[C@@H](C(c2ccccc2)c2ccccc2)C(=O)N2CCCC2C(=O)NC(CO)(Cc2ccccc2)C(=O)Nc2ccccc21 (single isomer, unassigned; 1a)", ">100 µg/mL"),
    ("O=C1N[C@@H](C(c2ccccc2)c2ccccc2)C(=O)N2CCCC2C(=O)N[C@@](CO)(Cc2ccccc2)C(=O)Nc2ccccc21 (single isomer, unassigned)", ">128 µg/mL"),
    ("O=C(N[C@@H](C(=O)N1CCC[C@H]1C(=O)N[C@H](CO)Cc1ccccc1)C(c1ccccc1)c1ccccc1)OCc1ccccc1", "12.5 µg/mL"),
    ("O=C1N[C@@H](C(c2ccccc2)c2ccccc2)C(=O)N2CCC[C@@H]2C(=O)NCc2ccccc2-c2ccccc21", ">100 µg/mL"),
    ("O=C1N[C@@H](C(c2ccccc2)c2ccccc2)C(=O)N2CCCC2C(=O)N[C@](CO)(Cc2ccccc2)C(=O)Nc2ccccc21 (single isomer, unassigned)", ">128 µg/mL"),
]

[ask] Given O=C1N[C@@H](C(c2ccccc2)c2ccccc2)C(=O)N2CCCC2C(=O)NC(CO)(Cc2ccccc2)C(=O)Nc2ccccc21 (single isomer, unassigned; 1b) , report its MSC on Staphylococcus aureus.
[reply] 100 µg/mL
